Target Of Assay: T1, human Trop-2 (on the surface of human cell lines) (human, UniProt P09758 27-323)
T1 sequence: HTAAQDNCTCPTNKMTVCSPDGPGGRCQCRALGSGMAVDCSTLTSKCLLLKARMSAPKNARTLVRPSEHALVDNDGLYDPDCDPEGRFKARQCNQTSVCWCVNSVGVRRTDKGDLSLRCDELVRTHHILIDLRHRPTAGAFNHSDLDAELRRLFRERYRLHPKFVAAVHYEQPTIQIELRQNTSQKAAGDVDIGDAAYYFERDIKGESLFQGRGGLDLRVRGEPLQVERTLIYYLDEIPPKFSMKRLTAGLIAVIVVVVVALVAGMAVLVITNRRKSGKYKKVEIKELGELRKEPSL
Experimental Details: cell-based or functional assay
In this section, each of the binders is paired with its reported ADCC reporter (Jurkat-CD16a v158-NFAT-luciferase), target cell HCC1806, EC50.
Reported Property: ADCC reporter (Jurkat-CD16a v158-NFAT-luciferase), target cell HCC1806, EC50

[
  {
    "Binder": "hz-Ab2-1.3 (antibody, human IgG1, kappa, V domains shown, Humanized antibody) VH: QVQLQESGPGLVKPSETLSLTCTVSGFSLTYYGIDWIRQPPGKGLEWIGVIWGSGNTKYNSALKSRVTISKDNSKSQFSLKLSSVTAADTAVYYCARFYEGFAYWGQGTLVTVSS VL: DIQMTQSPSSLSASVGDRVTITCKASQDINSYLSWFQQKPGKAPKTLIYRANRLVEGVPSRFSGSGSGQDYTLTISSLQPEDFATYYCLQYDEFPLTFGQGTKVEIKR",
    "Experimental Value": "330 pM"
  },
  {
    "Binder": "ch-Ab21 (antibody, human IgG1, kappa, V domains shown, Mouse VH/VL on human IgG1 and human kappa constant regions; also called chimeric antibody of Ab21) VH: EVQLKQSGPGLVQPSQSLSITCTVSGFSLRNYGVHWVRQSPGKGLEWLGVIWSSGTTDYNAAFISRLSITKDNSKSQVFFKMNSLQVDDTAIYNCARDGDYDYYTMDYWGQGTSVTVSS VL: AIVLTQSPASLAVSLGQRATISCRASKSVSTSAYSYIHWYQQKPGQPPKLLIYLTSNLESGVPARFSGSGSGTDFTLNIHPVEEEDAATYYCQHSRELPYTFGGGTKLEIKR",
    "Experimental Value": "80 pM"
  },
  {
    "Binder": "hz-Ab21-2.2 (antibody, human IgG1, kappa, V domains shown, Humanized antibody) VH: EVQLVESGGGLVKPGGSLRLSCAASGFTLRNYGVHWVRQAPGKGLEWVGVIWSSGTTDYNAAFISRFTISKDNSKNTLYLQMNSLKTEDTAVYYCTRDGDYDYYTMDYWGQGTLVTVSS VL: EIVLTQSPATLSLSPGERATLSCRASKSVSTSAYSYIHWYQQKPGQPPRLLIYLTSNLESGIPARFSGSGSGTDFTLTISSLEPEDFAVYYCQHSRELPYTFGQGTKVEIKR",
    "Experimental Value": "260 pM"
  }
]
